src = patent US20230099293A1

Target: hOGA (Homo sapiens, UniProt O60502)
Construct: endogenous in cells; host or cells: HEK293 cells inducible for P301L mutant human Tau (isoform 2N4R)
Test: OGA cellular assay (ICC detection of O-GlcNAcylated proteins in HEK293 cells inducible for P301L mutant human Tau)
Type: cell-based
Conditions: Cellular hOGA; pEC50, second table; averaged values over several runs, obtained after recalibration of the equipment
measured.parameter: EC50

- compound: "Cc1cc(C(F)(F)F)cc(C)c1Nc1nccc2c1ncn2-c1ncn(C)c1C"
  test.target: "hOGA (Homo sapiens, UniProt O60502)"
  EC50: "> 1000 nM"
- compound: "Cc1cc(F)c(F)c(C)c1Nc1nccc2c1ncn2CC(=O)N1CCC1"
  test.target: "hOGA (Homo sapiens, UniProt O60502)"
  EC50: "> 1000 nM"

Now for the molecule whose EC50 we want.
EC50 for Cc1cc(C(F)(F)F)cc(C)c1Nc1nccc2c1ncn2-c1cn(C)cn1 is > 1000 nM

====

Biological target: recombinant human Meningioma Expressed Antigen 5 (MGEA5), also referred to as O-GlcNAcase (OGA) (Homo sapiens, UniProt O60502)
Construct: Full length OGA enzyme was purchased at OriGene (cat #TP322411); purchased OriGene TP322411
Assay: OGA biochemical assay (inhibition of FM-GlcNAc hydrolysis, fluorescence)
Conditions: read-out: Enzymatic Emax (%)
measured.parameter: Emax
Mention the unit after the number when you answer.

Here is how some compounds turned out for Emax.
- compound: "CCCCn1cnc2c(Nc3c(C)cc(F)cc3C)nccc21 [Compound 57]"
  Emax: "99%"
- compound: "Cc1cc(C(F)(F)F)cc(C)c1Nc1nccc2c1ncn2C(C)(C)C(=O)N(C)C [Compound 71]"
  Emax: "6%"
- compound: "CNC(=O)Cn1cnc2c(Nc3c(C)cc(C(F)(F)F)cc3C)nccc21 [Compound 4]"
  Emax: "98%"
- compound: "Cc1cc(C(F)(F)F)cc(C)c1Nc1ncc(C)c2c1cnn2CC(=O)N(C)C [Compound 81]"
  Emax: "100%"
- compound: "Cc1cc(C(F)(F)F)cc(C)c1Nc1ncc(C2CC2)c2c1ncn2CC(=O)N(C)C [Compound 75]"
  Emax: "97%"
- compound: "Cc1cc(-c2cnn(C)c2)cc(C(C)C)c1Nc1nccc2c1ncn2CC(=O)N(C)C [Compound 22]"
  Emax: "98%"

Now for the compound whose Emax we want.
Emax for Cc1cc(C(F)(F)F)nc(C)c1Nc1nccc2c1ncn2CC(=O)N(C)C [Compound 23] is 99%

====

Target: hOGA (Homo sapiens, UniProt O60502)
Construct: endogenous in cells; host or cells: HEK293 cells inducible for P301L mutant human Tau (isoform 2N4R)
Sequence (O60502 1-916): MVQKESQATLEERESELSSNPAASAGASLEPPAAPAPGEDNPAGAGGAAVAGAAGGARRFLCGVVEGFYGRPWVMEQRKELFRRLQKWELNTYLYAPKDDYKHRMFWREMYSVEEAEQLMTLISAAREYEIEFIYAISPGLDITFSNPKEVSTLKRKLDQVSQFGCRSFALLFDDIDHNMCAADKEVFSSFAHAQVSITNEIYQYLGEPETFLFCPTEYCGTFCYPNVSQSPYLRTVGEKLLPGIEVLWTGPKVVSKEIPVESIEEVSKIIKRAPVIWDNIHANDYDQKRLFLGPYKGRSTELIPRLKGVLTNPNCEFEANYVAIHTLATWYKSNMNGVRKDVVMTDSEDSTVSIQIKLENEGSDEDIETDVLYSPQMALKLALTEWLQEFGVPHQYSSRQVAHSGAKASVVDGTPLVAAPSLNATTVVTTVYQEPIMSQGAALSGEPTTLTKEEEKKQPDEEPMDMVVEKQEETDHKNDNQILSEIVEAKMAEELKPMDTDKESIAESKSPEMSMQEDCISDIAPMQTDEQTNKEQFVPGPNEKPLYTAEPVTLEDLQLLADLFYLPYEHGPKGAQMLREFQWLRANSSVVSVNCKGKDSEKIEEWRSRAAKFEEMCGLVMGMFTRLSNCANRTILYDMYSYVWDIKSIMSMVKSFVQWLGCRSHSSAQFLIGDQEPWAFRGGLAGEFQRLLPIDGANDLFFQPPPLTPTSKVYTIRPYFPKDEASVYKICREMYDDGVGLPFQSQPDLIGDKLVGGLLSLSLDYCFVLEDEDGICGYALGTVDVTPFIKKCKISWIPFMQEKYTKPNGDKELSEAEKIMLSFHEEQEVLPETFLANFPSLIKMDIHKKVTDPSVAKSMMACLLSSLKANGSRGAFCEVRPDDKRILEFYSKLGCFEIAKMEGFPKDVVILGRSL
Assay: OGA cellular assay (ICC detection of O-GlcNAcylated proteins in HEK293 cells inducible for P301L mutant human Tau)
Assay type: cell-based
Parameters: dose or concentration left out as unconfirmed
Details: HEK293, read-out: Cellular Emax (%)
measured.parameter: Emax (%)
Supply the numeric figure in %, leaving out any unit text.

Here is how some compounds turned out for Emax.
- compound: "Cc1ccc(C(F)(F)F)c(C)c1Nc1nccc2c1ncn2CC(=O)N(C)C [Compound 18]"
  measurement.unit: "%"
  Emax: 56
- compound: "Cc1nn(-c2cccc(C#N)c2)c(C)c1Nc1nccc2c1ncn2CC(=O)N(C)C [Compound 33]"
  measurement.unit: "%"
  Emax: 63
- compound: "Cc1cc(Cn2cnc3c(Nc4c(C)cc(C(F)(F)F)cc4C)nccc32)no1 [Compound 80]"
  measurement.unit: "%"
  Emax: 94
- compound: "CN(C)C(=O)Cn1cnc2c(Nc3c(Cl)cc(OC(F)(F)F)cc3Cl)nccc21 [Compound 7]"
  measurement.unit: "%"
  Emax: 66

Emax for CCN(C)C(=O)Cn1cnc2c(Nc3c(C)cc(C(F)(F)F)cc3C)nccc21 [Compound 63] is 100

Emax for Cc1ccc(-n2nc(C)c(Nc3nccc4c3ncn4CC(=O)N(C)C)c2C)cc1 [Compound 45] is 94

Emax for CC(C)c1cc(C(F)(F)F)cc(F)c1Nc1nccc2c1ncn2CC(=O)N(C)C [Compound 31] is 36

Emax for Cc1cc(C(F)(F)F)cc(C)c1Nc1ncc(C)c2c1cnn2CC(=O)N(C)C [Compound 81] is 66

====

Each record here notes measured melting point.
Supply the numeric figure in °C, leaving out any unit text.

Here is how some compounds turned out for melting point.
- compound: "Cc1cc(C(F)(F)F)cc(C)c1Nc1nccc2c1cnn2CC(=O)N(C)C [Compound 64]"
  melting point / °C: 196.5
- compound: "Cc1cc(C(F)(F)F)cc(C)c1Nc1ncc(Cl)c2c1ncn2CC(=O)N(C)C [Compound 62]"
  melting point / °C: 239.9
- compound: "Cc1ccc(C(F)(F)F)c(C)c1Nc1nccc2c1ncn2CC(=O)N(C)C [Compound 18]"
  melting point / °C: 250

Now for the compound whose melting point we want.
melting point for Cc1cc(F)c(F)c(C)c1Nc1nccc2c1ncn2CC(=O)N1CCC1 [Compound 79] is 214.8

====

Molecular target: recombinant human Meningioma Expressed Antigen 5 (MGEA5), also referred to as O-GlcNAcase (OGA) (Homo sapiens, UniProt O60502)
Construct: Full length OGA enzyme was purchased at OriGene (cat #TP322411); purchased OriGene TP322411
Experiment: OGA biochemical assay (inhibition of FM-GlcNAc hydrolysis, fluorescence)
Settings: read-out: Enzymatic Emax (%)
Each record here notes measured Emax.
Supply the numeric figure in %, leaving out any unit text.

Here is how some compounds turned out for Emax.
- compound: "CCc1cc(C(F)(F)F)cc(C)c1Nc1nccc2c1ncn2CC(=O)N(C)C"
  Emax [%]: 100
- compound: "Cc1cc(F)cc(C)c1Nc1nccc2c1ncn2CC(=O)N(C)C"
  Emax [%]: 98

Now for the compound whose Emax we want.
Emax for Cc1cc(C(F)(F)F)cc(C)c1Nc1nccc2c1ncn2Cc1ccon1 is 101
